B1: TRIM35 (parent)
chain: WEVQVSPTCPVCKDRASPADLRTN

Variants of: B1
assay_overview: protein stability index of a GFP-peptide fusion (GPS, HEK-293T) (PSI 1-6); higher = more stable;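 note: lentivirally expressed fusions sorted by FACS into six bins by GFP to DsRed ratio, PSI derived from sequencing read proportions per bin multiplied by bin number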
test_parameters: c terminus: a fixed tail appended
metric: protein stability index
Response field accepts a number only; no unit should be typed.

Observe how each entry below is paired with its result.
variant_string: V5H
metric: protein stability index
quantitative_readout: 2.97
--
variant_string: V5W
metric: protein stability index
quantitative_readout: 2.4
--
variant_string: T8K
metric: protein stability index
quantitative_readout: 2.39
--
variant_string: S17E
metric: protein stability index
quantitative_readout: 3.89
--
variant_string: R15E
metric: protein stability index
quantitative_readout: 3.43

Alright, here's another variant for you.
Exercise: Quick check: protein stability index of L21V ?
Solution: 3.33
